Experiment: Cytotoxicity against HEK293T cells assessed as cell viability at 64 ug/ml measured after 48 hrs relative to control
Assay type: toxicity, cell-based, HEK-293T
Settings: human, at 64 µg/mL, read-out: Activity
Outcome Measure: viability at 48 h, 64 ug/ml

Need viability at 48 h, 64 ug/ml, item CCCCCCc1c(-c2ccc(OCCCCNCCCN)cc2OCCCCNCCCN)oc2cc(OC)cc(O)c2c1=O
> 50%

----------
System: Enterococcus faecalis
Experiment: Antibacterial activity against multidrug resistant Enterococcus faecalis ATCC 51299
Type: functional
Reported values of log10 of MIC for individual entries
Log scale reminder: MIC in µg/mL, then log10 taken.

Compound: CCCCc1c(-c2ccc(O)cc2O)oc2cc(OC)cc(O)c2c1=O
Reading: 1.51
//
Compound: CC(C)=CCCC1=C[C@@H](c2c(O)cc3oc(-c4ccc(O)cc4O)cc(=O)c3c2O)[C@H](C(=O)c2ccc(O)cc2O)[C@@H](c2ccc(O)cc2O)C1
Reading: 1.00
//
Compound: CCCCCCc1c(-c2ccc(OCC(=O)CN[C@H](CCCNC(=N)N)C(=O)OC)cc2OCC(=O)CN[C@H](CCCNC(=N)N)C(=O)OC)oc2cc(OC)cc(O)c2c1=O
Reading: 1.51
//
Compound: CC1(C)S[C@@H]2[C@H](NC(=O)[C@H](N)c3ccccc3)C(=O)N2[C@H]1C(=O)O [AMPICILLIN]
Reading: 0.30
//
Compound: COc1cc(O)c2c(=O)c(CCC=C(C)C)c(-c3ccc(O)cc3O)oc2c1
Reading: 1.51
//
Compound: CCCCCc1c(-c2ccc(O)cc2O)oc2cc(O)cc(O)c2c1=O
Reading: 1.20

So what's the measured log10 of MIC for this one? CCCCCCc1c(-c2ccc(O)cc2O)oc2cc(O)cc(O)c2c1=O
1.20

Then what about the compound CC(C)=CCc1c(-c2ccc(O)c3c2OC(C)(C)C=C3)oc2cc(O)cc(O)c2c1=O [KUWANON A] ?
1.00

Would you kindly repeat that for CCCCCCc1c(-c2ccc(OCCCCN3CCCCC3)cc2OCCCCN2CCCCC2)oc2cc(OC)cc(O)c2c1=O ?
0.30

Next: O=c1c(CCCCc2ccccc2)c(-c2ccc(O)cc2O)oc2cc(O)cc(O)c12
1.51

Try CC(C)=CCc1c(-c2ccc(O)cc2O)oc2c(CC=C(C)C)c(O)cc(O)c2c1=O [KUWANON C] next.
1.00

Queued: CCCCCCc1c(-c2ccc(OCCCCN3CCCC(C)C3)cc2OCCCCN2CCCC(C)C2)oc2cc(OC)cc(O)c2c1=O (stereo unspecified)
0.30

Moving on to the next compound: CCCCCCc1c(-c2ccc(OCCCCCCN(C)C)cc2OCCCCCCN(C)C)oc2cc(OC)cc(O)c2c1=O
0.60

Here is the next compound: CCCCCCc1c(-c2ccc(OCCCCN(CC)CC)cc2OCCCCN(CC)CC)oc2cc(OC)cc(O)c2c1=O
0.60

Item: CCCCCc1c(-c2ccc(O)cc2O)oc2cc(OC)cc(O)c2c1=O
1.20

Could you do the same for CC(C)=CCCc1c(-c2ccc(O)cc2O)oc2cc(O)cc(O)c2c1=O , please?
1.51

Now consider CCCCCCCCCCCCCCCCc1c(-c2ccc(O)cc2O)oc2cc(OC)cc(O)c2c1=O and answer again.
1.81

Now try CCCCCCc1c(-c2ccc(OCCCCNCCCCCCCCN)cc2OCCCCNCCCCCCCCN)oc2cc(OC)cc(O)c2c1=O .
0.00

And CCCCCCCCCCc1c(-c2ccc(O)cc2O)oc2cc(OC)cc(O)c2c1=O ?
1.20

Queued: CCCCCCc1c(-c2ccc(OCCCCNCc3ccco3)cc2OCCCCNCc2ccco2)oc2cc(OC)cc(O)c2c1=O
0.60

Could you do the same for CCCc1c(-c2ccc(O)cc2O)oc2cc(OC)cc(O)c2c1=O , please?
1.81

Try this compound next: CCCCCCc1c(-c2ccc(OCCCCNCc3ccc(C(F)(F)F)cc3)cc2OCCCCNCc2ccc(C(F)(F)F)cc2)oc2cc(OC)cc(O)c2c1=O
1.20

Moving on to CCCCCCc1c(-c2ccc(OCCCCNCCC)cc2OCCCCNCCC)oc2cc(OC)cc(O)c2c1=O
0.30

How about CCCCCCc1c(-c2ccc(OCCCCN(CCC)CCC)cc2OCCCCN(CCC)CCC)oc2cc(OC)cc(O)c2c1=O ?
1.20

----------
System: Enterococcus faecalis
Experiment: Antibacterial activity against multidrug resistant Enterococcus faecalis ATCC 51299
Format: functional
Outcome Measure: MIC

Worked cases, MIC given:
Smiles Data: CCc1c(-c2ccc(O)cc2O)oc2cc(OC)cc(O)c2c1=O
Measured On: Enterococcus faecalis
MIC: 64 µg/mL
//
Smiles Data: CCCCCCCCCCCCCCCCc1c(-c2ccc(O)cc2O)oc2cc(O)cc(O)c2c1=O
Measured On: Enterococcus faecalis
MIC: > 64 µg/mL
//
Smiles Data: CCc1c(-c2ccc(OC)cc2OC)oc2cc(OC)cc(OC)c2c1=O
Measured On: Enterococcus faecalis
MIC: > 64 µg/mL
//
Smiles Data: CCCCCCc1c(-c2ccc(OCCCCN(C)C)cc2OCCCCN(C)C)oc2cc(OC)cc(O)c2c1=O
Measured On: Enterococcus faecalis
MIC: 1 µg/mL

Shift focus to the following entry.
Need MIC, item CCCCCCc1c(-c2ccc(OCCCCNC3CCCCC3)cc2OCCCCNC2CCCCC2)oc2cc(OC)cc(O)c2c1=O
2 µg/mL

----------
Experiment: Cytotoxicity against human L02 cells assessed as cell viability at 64 ug/ml measured after 48 hrs relative to control
Assay type: toxicity, cell-based
Details: at 64 µg/mL, read-out: Activity
Outcome Measure: viability at 48 h, 64 ug/ml

Can you share its viability at 48 h, 64 ug/ml? I mean this molecule: CCCCCCc1c(-c2ccc(OCCCCNCCCN)cc2OCCCCNCCCN)oc2cc(OC)cc(O)c2c1=O
> 50%

----------
System: Staphylococcus aureus
Assay: Antibacterial activity against Staphylococcus aureus clinical isolate 29
Type: functional
// MIC lookup, one value per entry
Output spec: scalar in mg/L, unitless text.

Example cases with answers are listed next.
Compound: CCCCCCc1c(-c2ccc(OCCCCN3CCCC(C)C3)cc2OCCCCN2CCCC(C)C2)oc2cc(OC)cc(O)c2c1=O (configuration not stated)
Reading: 2
//
Compound: CCCCCCc1c(-c2ccc(OCCCCNCc3ccco3)cc2OCCCCNCc2ccco2)oc2cc(OC)cc(O)c2c1=O
Reading: 2
//
Compound: CC1(C)S[C@@H]2[C@H](NC(=O)[C@H](N)c3ccccc3)C(=O)N2[C@H]1C(=O)O
Reading: 2
//
Compound: CCCCCCc1c(-c2ccc(OCC(=O)CN[C@H](CCCNC(=N)N)C(N)=O)cc2OCC(=O)CN[C@H](CCCNC(=N)N)C(N)=O)oc2cc(OC)cc(O)c2c1=O
Reading: 32
//
Compound: CCCCCCc1c(-c2ccc(OCC(=O)CN[C@H](CCCNC(=N)N)C(=O)OC)cc2OCC(=O)CN[C@H](CCCNC(=N)N)C(=O)OC)oc2cc(OC)cc(O)c2c1=O
Reading: 2
//
Compound: CCCCCCc1c(-c2ccc(OCCCCNCCc3ccccc3)cc2OCCCCNCCc2ccccc2)oc2cc(OC)cc(O)c2c1=O
Reading: 8

Below: the item to evaluate.
What value of MIC has been reported for the following compound? CCCCCCc1c(-c2ccc(OCCCCNCCCCCCCCN)cc2OCCCCNCCCCCCCCN)oc2cc(OC)cc(O)c2c1=O
1

----------
System: Staphylococcus aureus
Assay: Antibacterial activity against methicillin resistant Staphylococcus aureus clinical isolate 031
Type: functional
Reported values of MIC for individual entries
Numeric only. Scale: µg/mL

Below: 2 molecules and their reported MIC.
Smiles Data: CCCCCCc1c(-c2ccc(OCCCCN(CCC)CCC)cc2OCCCCN(CCC)CCC)oc2cc(OC)cc(O)c2c1=O
Measured On: Staphylococcus aureus
Scale Unit: µg/mL
MIC: 16
//
Smiles Data: CCCCCCc1c(-c2ccc(OCCCCNCc3ccc(C(F)(F)F)cc3)cc2OCCCCNCc2ccc(C(F)(F)F)cc2)oc2cc(OC)cc(O)c2c1=O
Measured On: Staphylococcus aureus
Scale Unit: µg/mL
MIC: 8

I have this molecule here, CCCCCCc1c(-c2ccc(OCCCCNCCCCCCCCN)cc2OCCCCNCCCCCCCCN)oc2cc(OC)cc(O)c2c1=O , and I need its recorded MIC.
1

Ok, now CCCCCCc1c(-c2ccc(OCC(=O)CN[C@H](CCCNC(=N)N)C(=O)OC)cc2OCC(=O)CN[C@H](CCCNC(=N)N)C(=O)OC)oc2cc(OC)cc(O)c2c1=O
2

----------
System: Staphylococcus aureus
Experiment: Antibacterial activity against methicillin resistant Staphylococcus aureus clinical isolate 011
Assay type: functional
Outcome Measure: log10(MIC) (log10 of the value in µg/mL)
Values are log10 of MIC in µg/mL.

Consider the reported log10(MIC) for these compounds:
Smiles Data: CCCCCCc1c(-c2ccc(OCCCCN(CC)CC)cc2OCCCCN(CC)CC)oc2cc(OC)cc(O)c2c1=O
log10(MIC): 0.30
//
Smiles Data: CCCCCCc1c(-c2ccc(OCCCCNCc3ccc(Br)cc3)cc2OCCCCNCc2ccc(Br)cc2)oc2cc(OC)cc(O)c2c1=O
log10(MIC): 1.81
//
Smiles Data: CCCCCCc1c(-c2ccc(OCCCCN(C)C)cc2OCCCCN(C)C)oc2cc(OC)cc(O)c2c1=O
log10(MIC): 0.00
//
Smiles Data: CCCCCCc1c(-c2ccc(OCCCCCCN(C)C)cc2OCCCCCCN(C)C)oc2cc(OC)cc(O)c2c1=O
log10(MIC): 0.60
//
Smiles Data: CCCCCCc1c(-c2ccc(OCCN(C)C)cc2OCCN(C)C)oc2cc(OC)cc(O)c2c1=O
log10(MIC): 0.30

Need log10(MIC) of CCCCCCc1c(-c2ccc(OCCCCNC3CCCCC3)cc2OCCCCNC2CCCCC2)oc2cc(OC)cc(O)c2c1=O , thanks.
0.30

Subsequent entry: CCCCCCc1c(-c2ccc(OCCCCNCc3ccc(Cl)cc3)cc2OCCCCNCc2ccc(Cl)cc2)oc2cc(OC)cc(O)c2c1=O
1.20

And what about the compound CCCCCCc1c(-c2ccc(OCCCCNCCc3ccccc3)cc2OCCCCNCCc2ccccc2)oc2cc(OC)cc(O)c2c1=O ?
0.60

Consider next the compound CCCCCCc1c(-c2ccc(OCCCCNCC)cc2OCCCCNCC)oc2cc(OC)cc(O)c2c1=O in the same way.
0.30

Next compound up: CCCCCCc1c(-c2ccc(OCC(=O)CN[C@H](CCCNC(=N)N)C(=O)OC)cc2OCC(=O)CN[C@H](CCCNC(=N)N)C(=O)OC)oc2cc(OC)cc(O)c2c1=O
0.00

Ok, now CCCCCCc1c(-c2ccc(OCCCCN(CCC)CCC)cc2OCCCCN(CCC)CCC)oc2cc(OC)cc(O)c2c1=O
0.90

Also CCCCCCc1c(-c2ccc(OCCCCNCc3ccc(C(F)(F)F)cc3)cc2OCCCCNCc2ccc(C(F)(F)F)cc2)oc2cc(OC)cc(O)c2c1=O ?
0.90

Moving on to the next compound: CCCCCCc1c(-c2ccc(OCCCCN3CCCCC3)cc2OCCCCN2CCCCC2)oc2cc(OC)cc(O)c2c1=O
0.00

Cool, now CCCCCCc1c(-c2ccc(OCCCCNCc3ccco3)cc2OCCCCNCc2ccco2)oc2cc(OC)cc(O)c2c1=O
0.30
